Data provenance is the supplement of paper PMC12645437.

Give log2 fold change of degron read counts for every item shown.
- system: T1, CRBN, Q96SW2;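 also: pooled lentiviral library of zinc finger degron-EGFP fusions in mCherry-positive Jurkat cells, FACS-sorted after compound exposure, with degron abundance counted by next-generation sequencing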
- T1 chain: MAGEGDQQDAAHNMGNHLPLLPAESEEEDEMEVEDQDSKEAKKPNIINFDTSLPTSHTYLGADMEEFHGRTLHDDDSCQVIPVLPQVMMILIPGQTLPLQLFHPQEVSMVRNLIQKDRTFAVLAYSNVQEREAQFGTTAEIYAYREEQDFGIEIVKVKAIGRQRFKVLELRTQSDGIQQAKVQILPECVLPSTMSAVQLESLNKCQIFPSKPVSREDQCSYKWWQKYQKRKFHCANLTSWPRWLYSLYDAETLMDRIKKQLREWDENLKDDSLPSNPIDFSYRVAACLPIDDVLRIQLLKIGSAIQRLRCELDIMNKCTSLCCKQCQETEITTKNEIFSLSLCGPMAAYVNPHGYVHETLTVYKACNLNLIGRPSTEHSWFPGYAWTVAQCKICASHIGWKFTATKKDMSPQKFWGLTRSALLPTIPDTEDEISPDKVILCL
- assay_procedure: log2 fold change of degron read counts, EGFP-low vs EGFP+ sorted cells (limma voom), compound-induced degradation; higher = more compound-induced degradation of the degron-EGFP fusion; degrons are variants of IKZF1/3 zinc finger 2; compound dose not given here
- reported_conditions: Jurkat; 18 h; compound: compound 19 (5-tert-butyl-thalidomide)
In all, about 8,300 sequences were measured (“log2 fold change of degron read counts, EGFP-low vs EGFP+ sorted cells (limma voom), compound-induced degradation”: median about -1.1, highest 2% from about 3.2 on). The list comes from a sample in which the highest values are over-represented; it also holds close analogues and randomly drawn sequences.
Please reply with the number alone, leaving off any unit.

**Q:** Output measured log2 fold change of degron read counts for this item: LTCPICGFYCTQKGNLLRHIKL [46L_47T_49P_50I_52G_53F_54Y_55C_67L_, Q9UKT9]
**A:** 1.69

**Q:** Output measured log2 fold change of degron read counts for this item: LKCPICGFYCTQKGNLLRHIKL [46L_47K_49P_50I_52G_53F_54Y_55C_67L_, Q9UKT9]
**A:** -0.431

**Q:** Output measured log2 fold change of degron read counts for this item: FQCPVCGARFTQKGNLLRHIKL [46F_47Q_49P_50V_52G_53A_54R_55F_67L_, Q9UKT9]
**A:** -0.395

**Q:** Output measured log2 fold change of degron read counts for this item: FGCPICGAVFTQKGNLLRHIKL [46F_47G_49P_50I_52G_53A_54V_55F_67L_, Q9UKT9]
**A:** 3.56

**Q:** Output measured log2 fold change of degron read counts for this item: LACEICGFHCTQKGNLLRHIKL [46L_47A_49E_50I_52G_53F_54H_55C_67L_, Q9UKT9]
**A:** 1.51

**Q:** Output measured log2 fold change of degron read counts for this item: LSCEICGFHCTQKGNLLRHIKL [46L_47S_49E_50I_52G_53F_54H_55C_67L_, Q9UKT9]
**A:** 0.928

**Q:** Output measured log2 fold change of degron read counts for this item: FECPVCGARFTQKGNLLRHIKL [46F_47E_49P_50V_52G_53A_54R_55F_67L_, Q9UKT9]
**A:** 0.67

**Q:** Output measured log2 fold change of degron read counts for this item: FDCDICGAFFTQKGNLLRHIKL [46F_47D_49D_50I_52G_53A_54F_55F_67L_, Q9UKT9]
**A:** -1.35

**Q:** Output measured log2 fold change of degron read counts for this item: FECPICGAVFTQKGNLLRHIKL [46F_47E_49P_50I_52G_53A_54V_55F_67L_, Q9UKT9]
**A:** 0.283

**Q:** Output measured log2 fold change of degron read counts for this item: LNCPICGFYCTQKGNLLRHIKL [46L_47N_49P_50I_52G_53F_54Y_55C_67L_, Q9UKT9]
**A:** 1.76

**Q:** Output measured log2 fold change of degron read counts for this item: FMCDVCGAAFTQKGNLLRHIKL [46F_47M_49D_50V_52G_53A_54A_55F_67L_, Q9UKT9]
**A:** -0.0468

**Q:** Output measured log2 fold change of degron read counts for this item: LCCEICGFHCTQKGNLLRHIKL [46L_47C_49E_50I_52G_53F_54H_55C_67L_, Q9UKT9]
**A:** 0.332

**Q:** Output measured log2 fold change of degron read counts for this item: FACPVCGARFTQKGNLLRHIKL [46F_47A_49P_50V_52G_53A_54R_55F_67L_, Q9UKT9]
**A:** 3.49

**Q:** Output measured log2 fold change of degron read counts for this item: FNCEICGHGFTQKGNLLRHIKL [46F_47N_49E_50I_52G_53H_54G_55F_67L_, Q9UKT9]
**A:** -2.44

**Q:** Output measured log2 fold change of degron read counts for this item: LYCEICGFHCTQKGNLLRHIKL [46L_47Y_49E_50I_52G_53F_54H_55C_67L_, Q9UKT9]
**A:** 3.13

**Q:** Output measured log2 fold change of degron read counts for this item: FMCPVCGARFTQKGNLLRHIKL [46F_47M_49P_50V_52G_53A_54R_55F_67L_, Q9UKT9]
**A:** -0.509

**Q:** Output measured log2 fold change of degron read counts for this item: FRCNICGAMFTQKGNLLRHIKL [46F_47R_49N_50I_52G_53A_54M_55F_67L_, Q9UKT9]
**A:** -1.41

**Q:** Output measured log2 fold change of degron read counts for this item: LICEICGFHCTQKGNLLRHIKL [46L_47I_49E_50I_52G_53F_54H_55C_67L_, Q9UKT9]
**A:** -0.287

**Q:** Output measured log2 fold change of degron read counts for this item: FECPICGHAFTQKGNLLRHIKL [46F_47E_49P_50I_52G_53H_54A_55F_67L_, Q9UKT9]
**A:** -2.37

**Q:** Output measured log2 fold change of degron read counts for this item: FQCPICGAVFTQKGNLLRHIKL [46F_47Q_49P_50I_52G_53A_54V_55F_67L_, Q9UKT9]
**A:** 0.109

**Q:** Output measured log2 fold change of degron read counts for this item: LECPICGFYCTQKGNLLRHIKL [46L_47E_49P_50I_52G_53F_54Y_55C_67L_, Q9UKT9]
**A:** 0.407

**Q:** Output measured log2 fold change of degron read counts for this item: FECEICGHHFTQKGNLLRHIKL [46F_47E_49E_50I_52G_53H_54H_55F_67L_, Q9UKT9]
**A:** -3.57

**Q:** Output measured log2 fold change of degron read counts for this item: FTCPICGHQFTQKGNLLRHIKL [46F_47T_49P_50I_52G_53H_54Q_55F_67L_, Q9UKT9]
**A:** 0.276

**Q:** Output measured log2 fold change of degron read counts for this item: FTCPICGAVFTQKGNLLRHIKL [46F_47T_49P_50I_52G_53A_54V_55F_67L_, Q9UKT9]
**A:** 0.104

**Q:** Output measured log2 fold change of degron read counts for this item: FRCPICGAVFTQKGNLLRHIKL [46F_47R_49P_50I_52G_53A_54V_55F_67L_, Q9UKT9]
**A:** -1.19

**Q:** Output measured log2 fold change of degron read counts for this item: FCCPVCGARFTQKGNLLRHIKL [46F_47C_49P_50V_52G_53A_54R_55F_67L_, Q9UKT9]
**A:** 2.31

**Q:** Output measured log2 fold change of degron read counts for this item: FVCPICGAVFTQKGNLLRHIKL [46F_47V_49P_50I_52G_53A_54V_55F_67L_, Q9UKT9]
**A:** -0.253

**Q:** Output measured log2 fold change of degron read counts for this item: FFCPVCGARFTQKGNLLRHIKL [46F_47F_49P_50V_52G_53A_54R_55F_67L_, Q9UKT9]
**A:** 3.35

**Q:** Output measured log2 fold change of degron read counts for this item: FICPICGAVFTQKGNLLRHIKL [46F_47I_49P_50I_52G_53A_54V_55F_67L_, Q9UKT9]
**A:** -0.717
